Please provide measured recombinant UMI read abundance (log10) for the entries that follow.
experiment: recombinant UMI read abundance after kanamycin selection (control-corrected) (log10(CPM+1)); higher = more efficient recombination; extreme values may be limits of the assay; sequences stand for … in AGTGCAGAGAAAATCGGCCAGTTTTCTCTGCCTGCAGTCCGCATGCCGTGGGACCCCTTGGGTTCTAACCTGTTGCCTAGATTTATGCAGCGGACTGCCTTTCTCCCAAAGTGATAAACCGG…AGGTTGGTTTCACT; site = the 11-nt donor;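 also: IS621 bridge recombinase in Escherichia coli cells against a fixed T5 target plasmid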
// return a plain number; no unit text

Challenge: Need recombinant UMI read abundance (log10), item GATAAACCATGGACCGGTTTTCCCGGTAATCCGTATTTGGT (site GAAAAACCTAC)
Response given: 0

Challenge: Need recombinant UMI read abundance (log10), item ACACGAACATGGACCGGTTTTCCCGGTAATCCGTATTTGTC (site ACAGGAACTGA)
Response given: 0

Challenge: Need recombinant UMI read abundance (log10), item GGCGACCCATGGACCGGTTTTCCCGGTAATCCGTATTTGTT (site GGCTACCCTAA)
Response given: 0.0186

Challenge: Need recombinant UMI read abundance (log10), item AGCCTTTCATGGACCGGTTTTCCCGGTAATCCGTATTTGCC (site AGCCTTTCTGC)
Response given: 0

Challenge: Need recombinant UMI read abundance (log10), item GCGCAAACATGGACCGGTTTTCCCGGTAATCCGTATTTGCT (site GCGCAAACTAG)
Response given: 1.59

Challenge: Need recombinant UMI read abundance (log10), item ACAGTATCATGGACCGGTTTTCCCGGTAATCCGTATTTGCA (site ACAGTTTCTCG)
Response given: 0

Challenge: Need recombinant UMI read abundance (log10), item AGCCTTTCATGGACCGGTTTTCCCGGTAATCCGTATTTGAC (site TGCCTTTCTGT)
Response given: 0

Challenge: Need recombinant UMI read abundance (log10), item CTATATCCATGGACCGGTTTTCCCGGTAATCCGTATTTGAG (site CTATATCCTCT)
Response given: 1.41

Challenge: Need recombinant UMI read abundance (log10), item GAGACGCCATGGACCGGTTTTCCCGGTAATCCGTATTTGAT (site GAGACGCCTAT)
Response given: 0.566
